// ELISA binding mIL-12RB2/control lookup, one value per entry
Molecular target: T1, biotinylated recombinant mouse IL-12Rβ2 (mouse, UniProt P97378 24-637, random biotinylated)
T1 construct: Recombinant protein produced in-house, biotinylated; also called mIL-12RB2; mouse IL-12RB2
T1 sequence: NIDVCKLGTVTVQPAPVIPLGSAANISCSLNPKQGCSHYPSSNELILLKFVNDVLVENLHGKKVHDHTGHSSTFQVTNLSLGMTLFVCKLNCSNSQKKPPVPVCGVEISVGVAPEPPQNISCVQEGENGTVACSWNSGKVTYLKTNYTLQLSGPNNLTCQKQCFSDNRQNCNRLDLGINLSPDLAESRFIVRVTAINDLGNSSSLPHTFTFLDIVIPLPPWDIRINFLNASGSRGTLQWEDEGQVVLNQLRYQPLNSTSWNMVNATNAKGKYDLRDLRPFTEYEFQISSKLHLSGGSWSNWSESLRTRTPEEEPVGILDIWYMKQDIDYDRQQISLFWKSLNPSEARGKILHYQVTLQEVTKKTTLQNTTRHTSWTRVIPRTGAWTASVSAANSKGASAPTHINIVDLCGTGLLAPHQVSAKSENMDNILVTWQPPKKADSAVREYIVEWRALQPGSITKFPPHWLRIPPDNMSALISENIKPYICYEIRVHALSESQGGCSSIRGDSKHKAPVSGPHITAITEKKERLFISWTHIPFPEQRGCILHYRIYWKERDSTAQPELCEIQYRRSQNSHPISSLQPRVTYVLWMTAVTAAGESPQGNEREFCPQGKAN
Experiment: ELISA, periplasmic extract on biotinylated mIL-12Rβ2, signal over control wells
Dear colleague, please return just the value in ratio, with no unit written.

Please review the following examples before continuing.
anti-IL-12Rβ2 VHH clone 20506 (VHH, not shown: small tags and cut ends, tested as periplasmic extract; also called 3CAM6) VHH: QVQLQESGGGLVQVGGSLRLSCAPSGRTFSTYAMGWFRQALGKEREVVATISWSGGRIYYTDSVKGRFTISRDNAKNTAYLQMNSLRPDDADVYYCATRGTDYGAWEYWGQGTQVTVSS
19.9
anti-IL-12Rβ2 VHH clone 21061 (VHH, not shown: small tags and cut ends, tested as periplasmic extract; also called 3CRHM85) VHH: QVQLQESGGGLVQPGGSLRLSCAASRRTFSKHAMAWFRQAPGKEREFVAVVRWSGIITYYADSVKGRFTISRDDAKNTVYLQMDSLKPEDTAVYYCAAGDYRGNGYYVPGMYDYWGQGTQVTVSS
8
anti-IL-12Rβ2 VHH clone 20479 (VHH, not shown: small tags and cut ends, tested as periplasmic extract; also called 2CAM33) VHH: QVQLQESGGGLVQTGGSLRLSCAASGRTFSNSVMGWFRQAPGKEREFVAALMWSAGSEFYTDSVKGRFSISGDGAKNTVYLQMNSLKAEDTAVYYCAAKNPPHRWSDIGKSPHYEYWGQGTQVTVSS
9.41
anti-IL-12Rβ2 VHH clone 20489 (VHH, not shown: small tags and cut ends, tested as periplasmic extract; also called 2CAM50) VHH: QVQLQESGGGLVQPGGPLRLSCAPSGRTFSTLAMAWFRQAPGKEREVVATISWSGGRTYYADSVKGRFTISRDNAKNTAFLQMNSLRPDDTAVYYCAARESDYGSYDYWGQGTQVTVSS
7.88
anti-IL-12Rβ2 VHH clone 20473 (VHH, not shown: small tags and cut ends, tested as periplasmic extract; also called 2CAM14) VHH: QVQLQESGGGLVQAGDSLRLSCAASGRTFSSYTMGWFRQAPGKEREFVARISQDGGSTYYADSMKGRFTVARDNAKNTVYLQMNSLKPEDTAVYYCAADMIKWGLRVGVDSFKYWGQGTQVTVSS
36.3
anti-IL-12Rβ2 VHH clone 20515 (VHH, not shown: small tags and cut ends, tested as periplasmic extract; also called 3CAM79) VHH: QVQLQESGGGLVQAGGSLRLSCAASGRTFSTYAMGWFRQAPGKEREFVAAISWSGGRTYYADSVKGRFAISRDNAKNTAYLQMNSLKPEDTAVYYCAADPSDYMGSYYGARRYDYWGQGTQVTVSS
12

get_value(item= anti-IL-12Rβ2 VHH clone 21055 (VHH, not shown: small tags and cut ends, tested as periplasmic extract; also called 3CRHM20) VHH: QVQLQESGGGLVQAGGSLRLSCAASGRTFSKSTMGWFRQTPGKEREFVAAITWTDTEVYANSVKDRFTISRDNAKNTFYLQMHSLKLEDTAVYYCAGDRYGSSRDSVFSSPTNYPYWGQGTQVTVSS , readout=ELISA binding mIL-12RB2/control) returns 20.2

ELISA binding mIL-12RB2/control in this record for anti-IL-12Rβ2 VHH clone 20532 (VHH, not shown: small tags and cut ends, tested as periplasmic extract; also called 2CAMS19) VHH: QVQLQESGGGLVQAGGSLRLSCAASGRTFVTYAMGWFRQAPGKEREFVAAISWSGGRLYYADSVKGRFTISRDNAKNTVYLQMNSLKPEDTAVYYCAADPQDYTGRDYQRRRYDYWGQGTQVTVSS : 3.81
